Target: NUAK family SNF1-like kinase 1 (Homo sapiens) (UniProt O60285)
Sequence (whole entry): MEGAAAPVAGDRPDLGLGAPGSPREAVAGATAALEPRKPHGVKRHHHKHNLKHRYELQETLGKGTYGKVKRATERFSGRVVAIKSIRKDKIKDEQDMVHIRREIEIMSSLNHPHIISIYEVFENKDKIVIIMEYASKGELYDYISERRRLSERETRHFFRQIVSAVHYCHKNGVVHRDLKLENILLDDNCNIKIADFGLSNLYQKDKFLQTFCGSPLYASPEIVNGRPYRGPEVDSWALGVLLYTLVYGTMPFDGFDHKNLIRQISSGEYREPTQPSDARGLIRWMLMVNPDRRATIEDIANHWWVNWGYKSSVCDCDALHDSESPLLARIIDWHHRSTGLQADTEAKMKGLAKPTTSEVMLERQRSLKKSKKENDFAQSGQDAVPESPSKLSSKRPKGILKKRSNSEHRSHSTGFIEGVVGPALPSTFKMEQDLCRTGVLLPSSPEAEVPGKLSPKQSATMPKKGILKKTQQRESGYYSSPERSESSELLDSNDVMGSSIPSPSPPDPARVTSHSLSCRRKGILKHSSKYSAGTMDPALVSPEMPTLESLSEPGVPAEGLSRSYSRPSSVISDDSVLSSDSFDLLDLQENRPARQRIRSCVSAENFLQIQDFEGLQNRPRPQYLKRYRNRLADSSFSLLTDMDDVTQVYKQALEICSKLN
Details: at 1 µM
Description: GSK_PKIS: ARK5 mean inhibition at 1 uM [Nanosyn]
Value kind: inhibition (%)
Give the quantity in %, number only.

[
  {
    "Molecule": "CS(=O)(=O)CCNCc1ccc(-c2ccc3ncnc(Nc4ccc(OCc5ccccc5)cc4)c3c2)o1",
    "Unit info": "%",
    "inhibition": 1.06
  }
]

Summary for this molecule, `Fc1cccc(COc2ccc(Nc3ncncc3C#Cc3ccccc3)cc2Cl)c1` : inhibition is 3.38

Summary for this molecule, `CCOc1ccc2c(-c3ccnc(Nc4cc(OC)cc(C(F)(F)F)c4)n3)cnn2n1` : inhibition is 21.2

Summary for this molecule, `O=C1Nc2ccccc2/C1=C1\CCc2cc(O)ccc21` : inhibition is 60.8

Summary for this molecule, `Cc1nnc(-c2cccc(-c3ccc(C(=O)NCC4CC4)cc3)c2)o1` : inhibition is 2.61

Summary for this molecule, `CNC(=O)c1sc(-n2cnc3cc(OC)c(OC)cc32)cc1OCc1ccccc1C(F)(F)F` : inhibition is 6.22
